Where do the numbers come from? From paper PMC7887755.

- System: Mtb H37Rv
- Assay summary: microbe, parasite or virus in culture
- Assay type: cell-based, Mycobacterium tuberculosis
- Assay conditions: Mycobacterium tuberculosis, H37RV; read-out: MIC in 7H9 GCas
Measured MIC of individual entries
Provide a numeric answer, followed by its unit.

Worked cases, MIC given:
Exercise: Fill in reported MIC for this entry: `Cc1nn2c(=O)c(C)c(-c3ccccc3)[nH]c2c1-c1ccccc1`
Solution: 3.12 µM

Exercise: Fill in reported MIC for this entry: `Cc1nn2c(=O)cc(-c3ccccc3)[nH]c2c1C`
Solution: 12.5 µM

Exercise: Fill in reported MIC for this entry: NNC(=O)c1ccncc1 [INH, isoniazid, reference compound]
Solution: 0.16 µM

Exercise: Fill in reported MIC for this entry: Cc1nn2c(=O)cc(-c3ccccc3)n(C)c2c1-c1ccccc1 [Compound P2]
Solution: 50 µM

Others:
Exercise: Fill in reported MIC for this entry: `O=c1cc(-c2ccc(F)c(F)c2)[nH]c2c(-c3ccc(Cl)cc3)cnn12`
Solution: 12.5 µM
